Recorded measurements of PHOSPHORUS, one per entry
Organism: Rattus norvegicus
Experiment: DrugMatrix - Regimen: Daily Repeat
Assay type: toxicity, organism-based, Sprague-Dawley
Design: regimen Daily Repeat, gender Male, age 6-8 weeks
Settings: in vivo, po, 0 mg/kg, 72 h, tissue Plasma, route oral GAVAGE, dose level Control, time 3 day, vehicle 100 % WATER
Endpoint label: PHOSPHORUS (mg/dL)

>  <Molecule>
Clc1cccc(Cl)c1N=C1NCCN1

>  <Assay value>
11.92

$$$$
>  <Molecule>
C[C@H](CS)C(=O)N1CCC[C@H]1C(=O)O

>  <Assay value>
14.27

$$$$
>  <Molecule>
CC(O)CO (stereo unspecified)

>  <Assay value>
11.57

$$$$
>  <Molecule>
C[C@](N)(Cc1ccc(O)c(O)c1)C(=O)O

>  <Assay value>
12.45

$$$$
>  <Molecule>
N[C@@H](Cc1ccc(O)c(O)c1)C(=O)O

>  <Assay value>
11.95

$$$$
>  <Molecule>
c1ccc([C@H]2CN3CCSC3=N2)cc1

>  <Assay value>
11.48

$$$$
